ASSAYED_SYSTEM: human GPCR sphingosine 1-phosphate receptor 2 (Homo sapiens, UniProt O95136)
Construct: host or cells: CHO
Sequence (O95136 whole entry): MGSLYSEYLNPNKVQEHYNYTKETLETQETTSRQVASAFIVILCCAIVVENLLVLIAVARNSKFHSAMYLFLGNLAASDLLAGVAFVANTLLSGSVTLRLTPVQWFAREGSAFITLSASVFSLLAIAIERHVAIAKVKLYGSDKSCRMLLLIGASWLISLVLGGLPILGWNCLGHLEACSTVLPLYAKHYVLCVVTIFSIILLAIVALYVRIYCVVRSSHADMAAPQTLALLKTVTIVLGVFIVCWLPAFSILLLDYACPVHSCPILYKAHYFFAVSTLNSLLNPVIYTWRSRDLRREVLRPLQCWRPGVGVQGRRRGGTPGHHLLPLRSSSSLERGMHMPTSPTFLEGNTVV
ASSAY_PROTOCOL: S1PR2 antagonist Ca2+ flux assay
Type: cell-based
STATED_CONDITIONS: antagonist mode, CHO-S1PR2 cells, S1P at EC80, Ca2+ fluorescence; read-out: S1P2 EC50 (nM), S1P2 antagonist EC50
MEASURED_ATTRIBUTE: EC50 (nM)
Reply with just the number (in nM).

// solved cases for EC50 follow
INSERT INTO results (compound, recorded_number) VALUES
  ('Cc1cccc2c1c(=O)c(CC(=O)O)nn2Cc1cn2cc(OCC3CC3)c(Cl)cc2n1', 3.02),
  ('O=C(O)C1CCC1n1nc(Cn2cc3cc(OCC4CC4)c(Cl)cc3n2)c2ccccc2c1=O (stereo not shown)', 22.2);

stdin: // lookup EC50 for CN(C)CC(C(=O)O)n1nc(Cc2nc3cc(OCC(F)F)c(C#N)cc3[nH]2)c2ccccc2c1=O (stereo not shown)
stdout: 2660

====

ASSAYED_SYSTEM: S1PR2 (Homo sapiens, UniProt O95136)
Construct: expressed in transfected cells
ASSAY_PROTOCOL: S1PR2 binding assay (competition with radioactively labeled S1P, SpA)
STATED_CONDITIONS: membranes from stable cell line over expressing S1PR2, SpA beads; read-out: S1P2 EC50 (nM), S1PR2 binding EC50
MEASURED_ATTRIBUTE: EC50 (nM)
Unit nM implied. Number only.

Worked cases, EC50 given:
INSERT INTO results (compound, assayed_system, measured_attribute, recorded_number) VALUES
  ('N#Cc1cc2nn(Cc3nn(CC(=O)N4CCOCC4)c(=O)c4ccccc34)cc2cc1OCC1CC1 [Compound 209]', 'S1PR2 (Homo sapiens, UniProt O95136)', 'EC50', 235),
  ('O=C(O)Cn1cc(Cc2nc3cc(Cl)c(OCC(F)F)cc3[nH]2)c2ccccc2c1=O [Compound 125]', 'S1PR2 (Homo sapiens, UniProt O95136)', 'EC50', 200),
  ('O=C(Cc1nn(Cc2nc3cc(OCC(F)F)c(Cl)cc3[nH]2)c2ccccc2c1=O)N1CCOCC1 [Compound 159]', 'S1PR2 (Homo sapiens, UniProt O95136)', 'EC50', 30.7);

stdin: Lab request: please report EC50 under test system S1PR2 (Homo sapiens, UniProt O95136) for O=C(Cn1nc(Cc2nc3cc(Cl)c(OC(F)(F)F)cc3[nH]2)c2c(c1=O)CCCC2)N1CCOCC1 [Compound 145]
stdout: 80.2

stdin: Hello, I am looking for reported EC50 with S1PR2 (Homo sapiens, UniProt O95136) for O=C(Cn1nc(Cc2cc3cc(Cl)c(OCC(F)F)cc3[nH]2)c2ccccc2c1=O)N1CCOCC1 [compound 11] . Could you help?
stdout: 324

stdin: Given the entry N#Cc1cc2[nH]c(Cn3cc(C(=O)O)c(=O)c4ccccc43)nc2cc1OCC(F)F [Compound 80] , what EC50 was observed with S1PR2 (Homo sapiens, UniProt O95136)?
stdout: 619

stdin: I'm curious: which EC50 was measured for N#Cc1cc2nc(Cc3nn(CC(=O)N4CCOCC4)c(=O)c4c3CCCC4)[nH]c2cc1OCC(F)F [Compound 164] tested on S1PR2 (Homo sapiens, UniProt O95136)?
stdout: 129

stdin: Return EC50 measured with S1PR2 (Homo sapiens, UniProt O95136) given this compound: CC(C(=O)O)n1nc(Cc2cn3cc(OCC4CC4)c(Cl)cc3n2)c2ccccc2c1=O (stereo not shown) [Compound 83]
stdout: 53.2

====

Known EC50 of a selection of compounds
ASSAYED_SYSTEM: human GPCR sphingosine 1-phosphate receptor 2 (Homo sapiens)
Construct: host or cells: CHO
ASSAY_PROTOCOL: S1PR2 antagonist Ca2+ flux assay
Format: cell-based
STATED_CONDITIONS: antagonist mode, CHO-S1PR2 cells, S1P at EC80, Ca2+ fluorescence; read-out: S1P2 EC50 (nM), S1P2 antagonist EC50
Give the value, in units of nM, as a plain number.

INSERT INTO measurements (compound, unit_spec, recorded_number) VALUES
  ('CC(C(=O)N1CCOCC1)n1nc(Cc2nc3cc(OCC4CC4)c(Cl)cc3[nH]2)c2ccccc2c1=O (stereo not shown) [Compound 155]', 'nM', 14.7);

stdin: GET /values?readout=EC50&item= N#Cc1cc2[nH]c(Cc3nn(CC(=O)NCCC(F)(F)F)c(=O)c4ccccc34)nc2cc1OCC(F)F [Compound 224]
stdout: 19.6

stdin: Reported EC50, compound CC(C#N)CN(C)C(=O)Cn1nc(Cc2nc3cc(C#N)c(OCC(F)F)cc3[nH]2)c2ccccc2c1=O (stereo not shown) [Compound 195] : ____
stdout: 31.9

stdin: Report EC50 for N#Cc1cc2[nH]c(Cc3nn(CC(=O)NCC(F)(F)F)c(=O)c4ccccc34)nc2cc1OCC(F)F [Compound 230] please.
stdout: 408

====

ASSAYED_SYSTEM: S1PR2 (Homo sapiens)
Construct: expressed in transfected cells
ASSAY_PROTOCOL: S1PR2 binding assay (competition with radioactively labeled S1P, SpA)
STATED_CONDITIONS: membranes from stable cell line over expressing S1PR2, SpA beads; read-out: S1P2 EC50 (nM), S1PR2 binding EC50
Parameter EC50: see the listing below.
Your answer should be a plain number; it is taken to be in nM.

Recorded results for 3 compounds are shown here.
INSERT INTO results (compound, assayed_system, recorded_number) VALUES
  ('O=C(Cn1nc(Cc2nc3cc(OCC(F)F)c(F)cc3[nH]2)c2c(c1=O)CCCC2)N1CCOCC1 [Compound 179]', 'S1PR2 (Homo sapiens)', 207),
  ('CC1(O)CCN(C(=O)Cn2nc(Cc3nc4cc(OCC(F)F)c(C#N)cc4[nH]3)c3ccccc3c2=O)C1 (stereo not shown) [Compound 201]', 'S1PR2 (Homo sapiens)', 138),
  ('N#Cc1cc2nc(Cc3nn(CC(=O)N4CCOCC45CCC5)c(=O)c4ccccc34)[nH]c2cc1OCC(F)F [Compound 189]', 'S1PR2 (Homo sapiens)', 558);

Moving on to another compound below.
stdin: Dear colleague, I am looking for the recorded EC50 of the following compound: CC1(O)CCN(C(=O)Cn2nc(Cc3cn4cc(OCC5CC5)c(C#N)cc4n3)c3ccccc3c2=O)C1 (stereo not shown) [Compound 210]
stdout: 233

====

ASSAYED_SYSTEM: human GPCR sphingosine 1-phosphate receptor 2 (Homo sapiens, UniProt O95136)
Construct: host or cells: CHO
ASSAY_PROTOCOL: S1PR2 antagonist Ca2+ flux assay
Assay type: cell-based
STATED_CONDITIONS: antagonist mode, CHO-S1PR2 cells, S1P at EC80, Ca2+ fluorescence; read-out: S1P2 EC50 (nM), S1P2 antagonist EC50
MEASURED_ATTRIBUTE: EC50 (nM)
Note: unit nM is implicit; provide only the numeric part.

Examples with answers:
INSERT INTO measurements (compound, recorded_number) VALUES
  ('CCOc1cc2nc(Cc3nn(CC(=O)N4CCOCC4)c(=O)c4ccccc34)[nH]c2cc1F [Compound 157]', 106),
  ('N#Cc1cc2[nH]c(Cc3nn(CC(=O)NCC(F)(F)CO)c(=O)c4ccccc34)nc2cc1OCC(F)F [Compound 228]', 21.1),
  ('O=c1c2ccccc2c(Cc2nc3cc(Cl)c(OCC(F)F)cc3[nH]2)nn1C1CC1 [Compound 32]', 19.3);

Turning to the following compound.
stdin: Using the record for O=C(O)Cn1nc(Cn2cc3cc(OCC(F)(F)F)c(Cl)cc3n2)c2ccccc2c1=O [Compound 252] , report its EC50.
stdout: 62.6

====

ASSAYED_SYSTEM: human GPCR sphingosine 1-phosphate receptor 5 (Homo sapiens, UniProt Q9H228)
Construct: host or cells: CHO
Sequence (Q9H228 whole entry): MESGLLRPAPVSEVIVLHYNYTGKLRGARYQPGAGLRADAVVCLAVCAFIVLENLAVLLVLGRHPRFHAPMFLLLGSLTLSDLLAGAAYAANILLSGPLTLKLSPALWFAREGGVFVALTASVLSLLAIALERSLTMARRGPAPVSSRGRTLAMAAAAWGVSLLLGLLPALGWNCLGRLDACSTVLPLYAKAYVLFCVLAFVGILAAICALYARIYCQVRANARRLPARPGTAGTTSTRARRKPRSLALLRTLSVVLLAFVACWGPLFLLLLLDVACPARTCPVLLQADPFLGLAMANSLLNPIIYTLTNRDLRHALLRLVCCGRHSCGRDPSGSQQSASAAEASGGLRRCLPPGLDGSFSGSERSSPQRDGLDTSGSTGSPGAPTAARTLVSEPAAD
ASSAY_PROTOCOL: S1PR5 selectivity Ca2+ flux assay (antagonist readout)
Format: cell-based
STATED_CONDITIONS: CHO cells overexpressing human S1PR5 and Gq, agonist at EC80 (20 nM), read-out: S1P5 EC50 (nM), S1P5 antagonist EC50
From the text: To evaluate the selectivity of the compounds for S1PR2 over S1PR1 and S1PR5, asimilar assay set upas described above for theS1PR2 calcium flux assays waspeformed: CHO cells stably overexpressing human GPCR sphingosine 1-phosphate receptor 1 and Gq protein (Euroscreen, FAST-0197A) or overexpressing human GPCR sphingosine 1-phosphate receptorS5 and Gq protein were used (Perkin Elmer, ES-593-A). […]
MEASURED_ATTRIBUTE: log10 of EC50 (log10 of the value in nM)
Scale: decimal log of EC50, EC50 in nM.

stdin: Please provide the recorded log10 of EC50 for CCOc1cc2[nH]c(Cc3nn(CC(=O)N4CCOCC4)c(=O)c4ccccc34)nc2cc1C#N [Compound 170] , tested on human GPCR sphingosine 1-phosphate receptor 5 (Homo sapiens, UniProt Q9H228).
stdout: 4.30

stdin: Query for human GPCR sphingosine 1-phosphate receptor 5 (Homo sapiens, UniProt Q9H228): what log10 of EC50 does the record show for COc1cc2[nH]c(Cc3nn(CC(=O)O)c(=O)c4c3CCCC4)nc2cc1Cl [Compound 120] ?
stdout: 4.30

stdin: Lab request: please report log10 of EC50 under test system human GPCR sphingosine 1-phosphate receptor 5 (Homo sapiens, UniProt Q9H228) for CS(=O)(=O)NC(=O)Cn1nc(Cc2nc3cc(OCC4CC4)c(Cl)cc3[nH]2)c2ccccc2c1=O [Compound 242]
stdout: 4.30
